Test: basal MM1S mitochondrial membrane potential changes, profiling panel, cell-based, JC-1 fluorescence, 24 h, 100 nL compound (AID 1170); note: test concentration not given here
Settings: higher = more signal
The compounds listed here are annotated with their z-score.
Write no unit; give the number alone.

These solved cases illustrate the format of a correct answer.
What the record says about "CC(C)[Si](C#CCCCC#N)(O[C@H](c1ccccc1)c1cn([C@H](CO)Cc2ccccc2)nn1)C(C)C" : z-score is -1.47

What the record says about "CCOC(=O)C[C@H]1[C@H](OC(=O)c2cc3ccccc3oc2=O)[C@@H](NC(=O)Cc2ccc(OC)cc2)c2cc(OCCCO)ccc2N1C(=O)c1ccc2ccccc2n1" : z-score is 0.429

More entries:
What the record says about "CO[C@H]1O[C@H](CO)[C@@H](OC(=O)Nc2ccc3c(c2)OCO3)[C@H](OC(=O)c2cc3ccccc3[nH]2)[C@H]1OC(=O)c1cc2ccccc2[nH]1" : z-score is -1.29
